target or system: DNA polymerase subunit gamma-1 (Homo sapiens, UniProt P54098)
Sequence (P54098 whole entry): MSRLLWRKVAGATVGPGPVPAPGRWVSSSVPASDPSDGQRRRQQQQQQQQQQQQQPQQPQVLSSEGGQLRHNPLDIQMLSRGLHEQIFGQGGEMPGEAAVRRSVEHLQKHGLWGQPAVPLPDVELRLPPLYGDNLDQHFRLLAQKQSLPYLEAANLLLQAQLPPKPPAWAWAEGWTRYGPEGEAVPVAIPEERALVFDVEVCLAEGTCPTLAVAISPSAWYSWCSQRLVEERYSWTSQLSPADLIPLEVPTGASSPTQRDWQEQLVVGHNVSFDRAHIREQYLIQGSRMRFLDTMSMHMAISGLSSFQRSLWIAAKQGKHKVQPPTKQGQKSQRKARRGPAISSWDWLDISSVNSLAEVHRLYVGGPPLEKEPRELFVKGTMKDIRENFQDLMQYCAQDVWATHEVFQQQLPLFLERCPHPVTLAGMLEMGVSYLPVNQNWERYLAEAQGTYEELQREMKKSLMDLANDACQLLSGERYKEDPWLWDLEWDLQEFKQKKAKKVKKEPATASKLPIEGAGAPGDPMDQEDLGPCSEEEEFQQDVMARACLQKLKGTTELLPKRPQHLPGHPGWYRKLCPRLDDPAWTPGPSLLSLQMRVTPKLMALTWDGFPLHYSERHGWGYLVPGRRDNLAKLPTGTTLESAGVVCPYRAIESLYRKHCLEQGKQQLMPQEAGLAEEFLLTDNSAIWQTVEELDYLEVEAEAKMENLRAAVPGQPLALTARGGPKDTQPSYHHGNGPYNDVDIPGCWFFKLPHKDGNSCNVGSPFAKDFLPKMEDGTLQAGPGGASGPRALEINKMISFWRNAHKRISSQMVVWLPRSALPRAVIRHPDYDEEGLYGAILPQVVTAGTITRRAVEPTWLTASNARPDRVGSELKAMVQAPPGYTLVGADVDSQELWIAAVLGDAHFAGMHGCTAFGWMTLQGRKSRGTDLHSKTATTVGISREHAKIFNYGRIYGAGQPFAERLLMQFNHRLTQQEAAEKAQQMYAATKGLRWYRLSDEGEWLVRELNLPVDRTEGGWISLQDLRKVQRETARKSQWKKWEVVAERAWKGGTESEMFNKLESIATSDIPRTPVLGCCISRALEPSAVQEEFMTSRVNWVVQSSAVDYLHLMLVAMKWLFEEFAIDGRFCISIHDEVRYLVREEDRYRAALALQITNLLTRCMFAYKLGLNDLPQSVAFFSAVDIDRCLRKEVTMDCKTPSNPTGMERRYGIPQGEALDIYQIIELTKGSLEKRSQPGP
experiment description: Inhibition of human DNA polymerase gamma
reported property: IC50 (µM)

P. COc1cc(C)c(C(=O)O[C@]2(C)C(=O)C3=C(C=C(/C=C/CO)OC3)C[C@@H]2O)c(O)c1
Q. COc1cc(C)c(C(=O)O[C@H]2CC3=C(COC(/C=C/CO)=C3)C(=O)[C@@]2(C)O)c(O)c1
input: Between P and Q , whose recorded IC50 is greater? Give the chosen item's label as your response.
output: P
(P: 72.9 µM, Q: 35 µM)
